Numbers sourced from ChEMBL document CHEMBL1137364.

# target: P2Y purinoceptor 6 (Homo sapiens, UniProt Q15077)
# experiment: Agonist activity at human P2Y6 receptor expressed in 1321N1 cells assessed as IP accumulation by SPA at 100 uM
# Format: functional, cell-based
# Sequence (Q15077 whole entry): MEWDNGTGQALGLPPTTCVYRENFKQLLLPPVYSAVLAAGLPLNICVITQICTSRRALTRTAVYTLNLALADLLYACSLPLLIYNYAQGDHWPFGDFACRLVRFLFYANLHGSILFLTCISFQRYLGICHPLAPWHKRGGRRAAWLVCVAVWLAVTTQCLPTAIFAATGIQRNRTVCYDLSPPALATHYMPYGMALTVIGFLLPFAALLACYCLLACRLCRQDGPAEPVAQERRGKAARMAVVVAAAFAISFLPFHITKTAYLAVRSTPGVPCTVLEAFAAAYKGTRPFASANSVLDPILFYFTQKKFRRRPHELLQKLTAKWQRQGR
observable: Activity (%)
# output: bare number, implied unit %

Completed entries (count: 5):
# smiles-str, Activity [%]
records = [
    ("O=c1ccn([C@@H]2O[C@H](COP(=O)(O)OP(=O)(O)OP(=O)(O)O)[C@@H](O)[C@H]2O)c(=S)[nH]1", 118),
    ("CCCc1cc(=O)n([C@@H]2O[C@H](COP(=O)(O)OP(=O)(O)OP(=O)(O)O)[C@H]3OP(=O)(O)O[C@H]32)c(=O)[nH]1", 8),
    ("O=c1cc(O)n([C@@H]2O[C@H](COP(=O)(O)OP(=O)(O)OP(=O)(O)O)[C@@H](O)[C@H]2O)c(=O)[nH]1", 43),
    ("O=C(Cn1c(=O)ccn([C@@H]2O[C@H](COP(=O)(O)OP(=O)(O)OP(=O)(O)O)[C@@H](O)[C@H]2O)c1=O)c1ccccc1", 100),
    ("Cc1cc(=O)n([C@@H]2O[C@H](COP(=O)(O)OP(=O)(O)O)[C@@H](O)[C@H]2O)c(=O)[nH]1", 108),
]

Prompt: Which measured Activity value corresponds to `Cn1c(=O)ccn([C@@H]2O[C@H](COP(=O)(O)OP(=O)(O)OP(=O)(O)O)[C@@H](O)[C@H]2O)c1=O` ?
Response: 109

Prompt: What value of Activity has been reported for the following molecule? `Cn1c(=O)ccn([C@@H]2O[C@H](COP(=O)(O)OP(=O)(O)O)[C@@H](O)[C@H]2O)c1=O`
Response: 121

* * *

# target: P2Y purinoceptor 6 (Homo sapiens)
# experiment: Antagonist activity at human P2Y6 receptor assessed as inhibition of UDP-induced IP accumulation at 100 uM
# Sequence (Q15077 whole entry, looked up): as the sequence (Q15077 whole entry) above
Calls of active or inactive are those of the source. No cut-off for these calls is given here.
observable: Activity

# smiles-str, Activity
records = [
    ("Cc1cc(=O)n([C@@H]2O[C@H](COP(=O)(O)OP(=O)(O)OP(=O)(O)O)[C@@H](O)[C@H]2O)c(=O)[nH]1", "inactive"),
    ("CCCc1cc(=O)n([C@@H]2O[C@H](COP(=O)(O)OP(=O)(O)OP(=O)(O)O)[C@@H](O)[C@H]2O)c(=O)[nH]1", "inactive"),
    ("O=C(Cn1c(=O)ccn([C@@H]2O[C@H](COP(=O)(O)O)[C@@H](O)[C@H]2O)c1=O)c1ccccc1", "inactive"),
    ("CCCc1cc(=O)n([C@@H]2O[C@H](COP(=O)(O)OP(=O)(O)O)[C@@H](O)[C@H]2O)c(=O)[nH]1", "inactive"),
]

Read the next record carefully.
Prompt: I'd like to know its Activity. The compound in question is `O=c1cc(O)n([C@@H]2O[C@H](COP(=O)(O)OP(=O)(O)OP(=O)(O)O)[C@@H](O)[C@H]2O)c(=O)[nH]1`
Response: inactive

* * *

# target: P2Y purinoceptor 4 (Homo sapiens)
# Sequence (P51582 whole entry): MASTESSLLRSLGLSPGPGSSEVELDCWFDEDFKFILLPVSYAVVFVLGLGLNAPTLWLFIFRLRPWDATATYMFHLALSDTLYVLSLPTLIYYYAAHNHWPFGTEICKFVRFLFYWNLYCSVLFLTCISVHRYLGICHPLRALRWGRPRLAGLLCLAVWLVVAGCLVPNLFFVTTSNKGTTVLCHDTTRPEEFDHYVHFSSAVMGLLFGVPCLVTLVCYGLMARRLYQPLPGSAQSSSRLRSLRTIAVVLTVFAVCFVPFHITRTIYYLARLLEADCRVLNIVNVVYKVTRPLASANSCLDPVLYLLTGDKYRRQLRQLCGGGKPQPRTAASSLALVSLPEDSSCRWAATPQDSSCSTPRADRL
# experiment: Agonist activity at human P2Y4 receptor expressed in 1321N1 cells assessed as IP accumulation by SPA
pEC50: −log10 of the molar value.
observable: pEC50

# compound, result
records = [
    ("Cn1c(=O)ccn([C@@H]2O[C@H](COP(=O)(O)O)[C@@H](O)[C@H]2O)c1=O", "< 4.00"),
    ("O=c1[nH]c(=O)n([C@@H]2O[C@H](COP(=O)(O)OP(=O)(O)C(Cl)(Cl)P(=O)(O)O)[C@@H](O)[C@H]2O)cc1Br", 5.40),
    ("O=c1[nH]c(=O)n([C@@H]2O[C@H](COP(=O)(O)OP(=O)(O)O)[C@@H](O)[C@H]2O)cc1Br", 5.14),
    ("O=C(Cn1c(=O)ccn([C@@H]2O[C@H](COP(=O)(O)OP(=O)(O)O)[C@@H](O)[C@H]2O)c1=O)c1ccccc1", "< 4.00"),
    ("O=c1ccn([C@@H]2O[C@H](COP(=O)(O)OP(=O)(O)O)[C@@H](O)[C@H]2O)c(=S)[nH]1", "< 6.00"),
    ("O=c1[nH]c(=O)n([C@@H]2O[C@H](COP(=O)(O)OP(=O)(O)OP(=O)(O)O)[C@@H](O)[C@H]2O)cc1Br", 5.46),
    ("Cc1cc(=O)n([C@@H]2O[C@H](COP(=O)(O)O)[C@@H](O)[C@H]2O)c(=O)[nH]1", "< 4.00"),
    ("Cn1c(=O)ccn([C@@H]2O[C@H](COP(=O)(O)OP(=O)(O)OP(=O)(O)O)[C@@H](O)[C@H]2O)c1=O", 5.53),
    ("CCCc1cc(=O)n([C@@H]2O[C@H](COP(=O)(O)O)[C@@H](O)[C@H]2O)c(=O)[nH]1", "< 4.00"),
    ("O=C(Cn1c(=O)ccn([C@@H]2O[C@H](COP(=O)(O)O)[C@@H](O)[C@H]2O)c1=O)c1ccccc1", "< 4.00"),
]

Prompt: Requested read-out pEC50, target or system P2Y purinoceptor 4 (Homo sapiens), entry `O=c1ccn([C@@H]2O[C@H](COP(=O)(O)O)[C@@H](O)[C@H]2O)c(=S)[nH]1`
Response: < 4.00

Prompt: Give P2Y purinoceptor 4 (Homo sapiens) pEC50 for O=c1ccn([C@@H]2O[C@H](COP(=O)(O)OP(=O)(O)OP(=O)(O)O)[C@@H](O)[C@H]2O)c(=O)[nH]1 [URIDINE TRIPHOSPHATE]
Response: 7.06

Prompt: Param readout = pEC50; param system = P2Y purinoceptor 4 (Homo sapiens); param query = `O=C(Cn1c(=O)ccn([C@@H]2O[C@H](COP(=O)(O)OP(=O)(O)OP(=O)(O)O)[C@@H](O)[C@H]2OP(=O)(O)O)c1=O)c1ccccc1` ; response: value
Response: < 4.00

Prompt: GET /values?readout=pEC50&system=P2Y purinoceptor 4 (Homo sapiens)&item= `O=C(Cn1c(=O)ccn([C@@H]2O[C@H](COP(=O)(O)OP(=O)(O)OP(=O)(O)O)[C@@H](O)[C@H]2O)c1=O)c1ccccc1`
Response: < 6.00
